These data points were gathered from ChEMBL document CHEMBL3745707.

# reported pIC50; entries follow
Molecular target: Serine/threonine-protein kinase PLK2 (Homo sapiens)
Sequence (Q9NYY3 whole entry): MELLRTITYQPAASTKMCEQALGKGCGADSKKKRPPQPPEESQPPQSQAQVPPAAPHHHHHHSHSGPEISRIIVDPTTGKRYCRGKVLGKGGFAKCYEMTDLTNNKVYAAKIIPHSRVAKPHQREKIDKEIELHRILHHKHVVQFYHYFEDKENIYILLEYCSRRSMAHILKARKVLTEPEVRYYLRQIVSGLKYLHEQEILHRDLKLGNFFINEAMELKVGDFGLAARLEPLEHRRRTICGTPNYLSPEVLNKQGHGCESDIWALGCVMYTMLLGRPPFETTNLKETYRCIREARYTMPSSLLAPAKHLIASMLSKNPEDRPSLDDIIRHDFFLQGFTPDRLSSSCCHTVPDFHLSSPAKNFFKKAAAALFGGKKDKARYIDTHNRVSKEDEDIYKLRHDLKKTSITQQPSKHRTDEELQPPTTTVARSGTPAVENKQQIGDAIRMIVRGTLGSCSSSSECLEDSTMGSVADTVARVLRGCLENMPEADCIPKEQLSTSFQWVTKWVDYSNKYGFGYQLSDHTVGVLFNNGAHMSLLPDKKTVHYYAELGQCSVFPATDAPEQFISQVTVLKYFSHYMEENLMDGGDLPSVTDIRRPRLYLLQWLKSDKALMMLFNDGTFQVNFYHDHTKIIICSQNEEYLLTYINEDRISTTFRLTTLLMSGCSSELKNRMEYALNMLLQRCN
Experiment: Inhibition of human recombinant PLK2 using recombinant dephosphorylated bovine alpha- casein as substrate after 30 mins by scintillation counting analysis in presence of gamma-32P-ATP
Keep it numeric: pIC50 is minus log10 of the concentration in mol/L.

STRUCTURE_SMILES: Cn1c(=O)c(S(=O)(=O)c2ccccc2)cc2cnc(Nc3ccc4[nH]ccc4c3)nc21
REPORTED_RESULT: 5.91
--
STRUCTURE_SMILES: Cn1c(=O)c(S(=O)(=O)c2ccc(O)cc2)cc2cnc(Nc3ccc4[nH]ccc4c3)nc21
REPORTED_RESULT: 6.33
--
STRUCTURE_SMILES: Cn1c(=O)c(S(=O)(=O)c2ccc(F)cc2F)cc2cnc(Nc3ccc4[nH]ccc4c3)nc21
REPORTED_RESULT: 6.51
--
STRUCTURE_SMILES: COc1ccc(S(=O)(=O)c2cc3cnc(Nc4ccc5[nH]ccc5c4)nc3n(C)c2=O)cc1
REPORTED_RESULT: 6.46
--
STRUCTURE_SMILES: Cn1c(=O)c(S(=O)(=O)c2ccc(F)cc2)cc2cnc(Nc3ccc4[nH]ccc4c3)nc21
REPORTED_RESULT: 5.97

Continue with the next compound.
Would you mind telling me what pIC50 value was observed for `Cn1c(=O)c(S(=O)(=O)c2ccc(F)cc2)cc2cnc(Nc3cccc4[nH]ccc34)nc21` ?
5.22
